- assayNotes: self-splicing fitness, log relative to wild type (ln ratio); higher = more splicing; Tetrahymena group I intron in knt gene, E. coli kanamycin selection, DiMSum; sequences stand for … in CUCUCU…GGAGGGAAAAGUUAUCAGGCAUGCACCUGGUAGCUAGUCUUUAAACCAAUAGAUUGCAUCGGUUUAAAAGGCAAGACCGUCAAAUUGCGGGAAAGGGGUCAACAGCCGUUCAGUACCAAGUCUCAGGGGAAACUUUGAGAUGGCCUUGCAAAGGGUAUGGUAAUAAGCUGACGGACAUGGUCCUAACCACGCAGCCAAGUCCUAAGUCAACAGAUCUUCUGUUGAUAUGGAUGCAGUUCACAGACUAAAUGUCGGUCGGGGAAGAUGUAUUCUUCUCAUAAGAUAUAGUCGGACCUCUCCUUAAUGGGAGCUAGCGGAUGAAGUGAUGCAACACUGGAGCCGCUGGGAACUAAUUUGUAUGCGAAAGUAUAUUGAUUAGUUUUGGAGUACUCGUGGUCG;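 also: selection with 25 µg/mL kanamycin versus none on LB agar overnight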
- conditions: 37 °C
Decide using self-splicing fitness (ln): a value greater than or equal to -1 is MET, a smaller one is NOT MET.

These recorded examples may help you get a feel for the data.
AAGGAGCAAUAUUACGCCGC = NOT MET
CUGCAGCAAUAUUACGCGCU = NOT MET
GACCAGCAAUAUUACGGGAA = MET
UAAAAGCAAUAUUACGAAGU = NOT MET
UAUGAGCAAUAUUACGCACC = MET
CAGCAGCAAUAUUACGAAGG = NOT MET
AUACAGCAAUAUUACGUCGA = NOT MET

Next item in the queue.
## Task Is reported self-splicing fitness (ln) greater than or equal to -1 here: GAGAAGCAAUAUUACGCCGU
## Result NOT MET

---

- assayNotes: self-splicing fitness, log relative to wild type (ln ratio); higher = more splicing; Tetrahymena group I intron in knt gene, E. coli kanamycin selection, DiMSum; sequences stand for … in CUCUCU…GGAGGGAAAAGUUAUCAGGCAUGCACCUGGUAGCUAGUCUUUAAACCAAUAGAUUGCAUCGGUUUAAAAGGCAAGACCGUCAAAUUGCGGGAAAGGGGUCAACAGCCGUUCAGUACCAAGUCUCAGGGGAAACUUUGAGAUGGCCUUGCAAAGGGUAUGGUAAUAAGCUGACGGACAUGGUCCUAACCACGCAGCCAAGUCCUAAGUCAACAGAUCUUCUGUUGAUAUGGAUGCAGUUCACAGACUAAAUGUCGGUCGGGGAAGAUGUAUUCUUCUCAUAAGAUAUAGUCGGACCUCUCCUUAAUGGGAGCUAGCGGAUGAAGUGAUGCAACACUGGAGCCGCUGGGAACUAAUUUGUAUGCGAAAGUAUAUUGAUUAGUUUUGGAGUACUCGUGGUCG
- conditions: 30 °C
Answer each item with its documented self-splicing fitness (ln).

AUGGAGCAAUAUUACGCUUG = -1.46

For the 3 sequences below, give their self-splicing fitness (ln) values.
1. AACGAGCAAUAUUACGGGGC
2. UCCAAGCAAUAUUACGGCCG
3. UCCAAGCAAUAUUACGUCUA

## Result
1: -4.03; 2: -2.7; 3: -2.26

For the 6 sequences below, give their self-splicing fitness (ln) values.
1. UGCCAGCAAUAUUACGUCAU
2. AAACAGCAAUAUUACGUGCC
3. GGUAAGCAAUAUUACGCGAU
4. CGAGAGCAAUAUUACGCGAU
5. CCAAAGCAAUAUUACGCCAA
6. ACGUAGCAAUAUUACGAGUC

## Result
-3
-2
-2.17
-3.7
-2.73
-3.3

For the 6 sequences below, give their self-splicing fitness (ln) values.
1. UCUCAGCAAUAUUACGCAAC
2. UUAAAGCAAUAUUACGCCGU
3. AUCCAGCAAUAUUACGGAGG
4. UCGGAGCAAUAUUACGUCCA
5. CAACAGCAAUAUUACGUUCU
6. GAAAAGCAAUAUUACGAUGG

## Result
-4.04
-0.966
-2.21
-2.06
-1.32
-2.73

For the 4 sequences below, give their self-splicing fitness (ln) values.
1. AAAUAGCAAUAUUACGCAGC
2. CCCCAGCAAUAUUACGGAGC
3. AGUGAGCAAUAUUACGGAGC
4. AUUGAGCAAUAUUACGUGGA

## Result
1. -3.27
2. -3.08
3. -1.89
4. -2.87
